# protocol.notes: gradient 5% acetonitrile 3 min, to 50% in 2 min, to 85% in 15 min, held 3 min, 100 µL/min
# condition.description: column: Zorbax Extend-C18 2.1 x 50 mm; eluents: water / acetonitrile, 0.1% formic acid
measurement.name: RP-LC retention time (s)

                                   molecule  value_unit  numeric_result
0  CN1C(=O)CCc2cc(NS(=O)(=O)c3cccc(Cl)c3)ccc21           s             783
1  Fc1ccc(CN2CCC(Cc3nc(-c4cccnc4)n[nH]3)C2)c(F)c1 (stereo unspecified)           s             564
2  CCCOc1nc2ccccc2nc1N1CCCC(C(=O)Nc2cccc(OC)c2)C1 (stereo unspecified)           s            1260
3  COc1ccc(-c2nc3cnccn3c2Nc2ccc(C(=O)NC(C)C)cc2)cc1OC           s             661
4  CCC(C(=O)Nc1cccc(C)c1)n1cnc2nc3c(cc2c1=O)CCCC3 (stereo unspecified)           s             834
5  COc1ccc(C2Nc3ccc(C)cc3[C@H]3OCCC[C@@H]23)cc1O (stereo partly specified)           s             894
6         CCCNC(=O)c1cc2sccc2n1Cc1ccc(C)cc1           s            1060
7  O=S(=O)(NCCc1c[nH]c2ncccc12)c1ccc(Br)cc1           s             684
8  CCC1Oc2ccc(S(=O)(=O)N3CCC(C(=O)Nc4ccc(C(C)C)cc4)CC3)cc2NC1=O (stereo unspecified)           s            1000
9  CCOC(=O)C1=C(CN2CCN(c3ncccn3)CC2)NC(=O)NC1c1ccc(Cl)cc1 (stereo unspecified)           s             669

(a) CCN(Cc1ccccc1)C(=O)c1ncn2c1C(=O)N(C1CC1)C(C)(C(=O)NCc1ccccc1)C2 (stereo unspecified)
(b) Cc1ccc(Cl)cc1N1CCN(C(=O)c2ccc3c(c2)NC(=O)C2CCCCN32)CC1 (stereo unspecified)
**Query** Thinking about recorded RP-LC retention time values, which is higher, a or b ? Answer with the label corresponding to your selection.
**Result** b
(b: 1080 s, a: 742 s)

(a) CN(C)S(=O)(=O)c1ccc2c(c1)N(CC(=O)NCCc1cccs1)C(=O)C1CCCCN21 (stereo unspecified)
(b) O=C(C1COc2ccccc2O1)N1CCCN(C2CCN(CC3CC3)C2=O)CC1 (stereo unspecified)
(c) Clc1cccc(-c2noc(Cc3nc(-c4ccccc4)cs3)n2)c1
**Query** Returns the items ordered by RP-LC retention time, from maximum to minimum. Arrange the labels as the request states and list them.
**Result** c, a, b
(c: 1280 s, a: 876 s, b: 560 s)

(I) CC(C)n1c(=O)sc2cc(S(=O)(=O)N3CCC(C(=O)Nc4ccc(Cl)cc4)CC3)ccc21
(II) CCn1cnc(S(=O)(=O)N2CCC(C(=O)Nc3ccc(OC)cc3)CC2)c1
**Query** Which record shows the lower RP-LC retention time: the first, I , or the second, II ? Answer with the label corresponding to your selection.
**Result** II
(II: 666 s, I: 1050 s)

----------
# protocol.notes: gradient 5% acetonitrile 3 min, to 50% in 2 min, to 85% in 15 min, held 3 min, 100 µL/min
# condition.description: column: Zorbax Extend-C18 2.1 x 50 mm; eluents: water / acetonitrile, 0.1% formic acid
measurement.name: RP-LC retention time (s)

In [3]: df
Out[3]:
                                    molecule      measurement_name  numeric_result
 0  CC(=O)c1cccc(NC(=O)CN2C(=O)NC3(CCCCC3)C2=O)c1  RP-LC retention time             711
 1  COc1cc(OC)c(NC(=O)Cn2nc3n(c2=O)CCCC3)cc1Cl  RP-LC retention time             673
 2  O=C(CCc1c(-c2cccc(Cl)c2)nc2ccccn12)N1CCN(c2ccccc2)CC1  RP-LC retention time             718
 3  CN(CCCNC(=O)C1CCCN(c2ncc(-c3ccccc3)cn2)C1)c1ccccc1 (centres undefined)  RP-LC retention time             826
 4             COc1ccc(-c2cc3ccccc3[nH]2)cc1  RP-LC retention time            1100
 5  O=C(Nc1ccc(F)cc1)C1CCN(c2cc(N3CCCCC3)ncn2)CC1  RP-LC retention time             696
 6  CC(C)CCNC(=O)C1(C)Cn2nc(C(=O)NCc3ccc(Cl)cc3)cc2C(=O)N1C (centres undefined)  RP-LC retention time             822
 7  CCc1nnsc1C(=O)Nc1ccc(S(=O)(=O)Nc2onc(C)c2C)cc1  RP-LC retention time             759
 8  COc1ccc(S(=O)(=O)N2CCCC(C(=O)Nc3ccc4c(c3)OCO4)C2)cc1Cl (centres undefined)  RP-LC retention time             941
 9  CCCN(CC1CCOC1)C(=O)NCc1ccc(F)cc1 (centres undefined)  RP-LC retention time             758
10  COc1ccc(-c2nc3cc(C)ccn3c2NC(=O)COc2ccccc2)cc1  RP-LC retention time             694
11  O=C(NCc1ccccc1)c1cn(-c2ccc(NC(=O)C3CC3)cn2)cn1  RP-LC retention time             725
12  Cn1cc(-c2cc3n(n2)CCC(=O)N3CCCC(=O)NCc2ccco2)c2ccccc21  RP-LC retention time             775
13  CCOC(=O)C1CCCN(S(=O)(=O)c2cccc3cccnc23)C1 (centres undefined)  RP-LC retention time             798

----------
# protocol.notes: gradient 5% acetonitrile 3 min, to 50% in 2 min, to 85% in 15 min, held 3 min, 100 µL/min
# condition.description: column: Zorbax Extend-C18 2.1 x 50 mm; eluents: water / acetonitrile, 0.1% formic acid
measurement.name: RP-LC retention time (s)

>>> print(df.to_string())
                                   compound      measurement_name  numeric_result
0  O=C(Nc1cccc(-c2nnc3n2CCCC3)c1)c1cc(C2CC2)[nH]n1  RP-LC retention time             590
1         COCCNC(=O)c1nn(-c2ccc(F)cc2)nc1CO  RP-LC retention time             730

(A) CSc1ccc(CNC(=O)C2CCCN(C(=O)c3[nH]c(C)cc3C)C2)cc1 (stereo not given)
(B) Fc1cccc(/C=N/N=C/c2cccc(F)c2)c1
**Query** Which record shows the lower RP-LC retention time: the first, A , or the second, B ? Answer with the label corresponding to your selection.
**Result** A

----------
# protocol.notes: gradient 5% acetonitrile 3 min, to 50% in 2 min, to 85% in 15 min, held 3 min, 100 µL/min
# condition.description: column: Zorbax Extend-C18 2.1 x 50 mm; eluents: water / acetonitrile, 0.1% formic acid
measurement.name: RP-LC retention time (s)

Field: example entries. Status: answers known.
>>> print(df.to_string())
                                   compound  numeric_result
0  CN(C)S(=O)(=O)c1ccc2c(c1)N(CC(=O)N1CCCCC1)C(=O)C1CCCCN21 (stereo not drawn)             812
1  COC(=O)c1cc(OCC(=O)Nc2ccc(F)cc2F)c2cc(OC)ccc2n1             822
2  CCOC(=O)c1ccc(NC(=O)C2CCCN(c3nnc(C)c4c(C)n(-c5ccccc5)nc34)C2)cc1 (stereo not drawn)             797
3  Cc1nc(N2CCOCC2)c2c(C(=O)Nc3cccc(F)c3)c(C)oc2n1             817
4  CCc1noc(NC(C)=O)c1-c1ccc(OC)c(S(=O)(=O)Nc2cc(C)cc(C)c2)c1             852

(A) Cc1c(C(=O)N2CCCCC2C)sc2ncn(CC(=O)N3CC(C)CC(C)C3)c(=O)c12 (stereo not drawn)
(B) COCCCNC(=O)Cn1c(=O)n(-c2ccc(F)cc2)c2ncccc21
**Query** Thinking about recorded RP-LC retention time values, which is higher, A or B ? Answer with the label corresponding to your selection.
**Result** B

(P) CC(C)n1c(N2CCN(C(=O)Cc3cccs3)CC2)cc(=O)n(C(C)C)c1=O
(Q) CCOC(=O)c1cnc2cc(Cl)c(OC)cc2c1N1CCN(c2cccc(Cl)c2)CC1
**Query** Thinking about recorded RP-LC retention time values, which is higher, P or Q ? Answer with the label corresponding to your selection.
**Result** Q

(a) CN(C)c1cccc(C(=O)NCc2nn(C)c3ccccc23)c1
(b) CCn1cc(-c2nc(CC(=O)NC3CCCCCC3)cs2)c2cccnc21
**Query** Which record shows the lower RP-LC retention time: the first, a , or the second, b ? Answer with the label corresponding to your selection.
**Result** a
